# TARGET_ENTITY: BSA (UniProt P02769)
# Sequence (P02769 25-607 limits assumed): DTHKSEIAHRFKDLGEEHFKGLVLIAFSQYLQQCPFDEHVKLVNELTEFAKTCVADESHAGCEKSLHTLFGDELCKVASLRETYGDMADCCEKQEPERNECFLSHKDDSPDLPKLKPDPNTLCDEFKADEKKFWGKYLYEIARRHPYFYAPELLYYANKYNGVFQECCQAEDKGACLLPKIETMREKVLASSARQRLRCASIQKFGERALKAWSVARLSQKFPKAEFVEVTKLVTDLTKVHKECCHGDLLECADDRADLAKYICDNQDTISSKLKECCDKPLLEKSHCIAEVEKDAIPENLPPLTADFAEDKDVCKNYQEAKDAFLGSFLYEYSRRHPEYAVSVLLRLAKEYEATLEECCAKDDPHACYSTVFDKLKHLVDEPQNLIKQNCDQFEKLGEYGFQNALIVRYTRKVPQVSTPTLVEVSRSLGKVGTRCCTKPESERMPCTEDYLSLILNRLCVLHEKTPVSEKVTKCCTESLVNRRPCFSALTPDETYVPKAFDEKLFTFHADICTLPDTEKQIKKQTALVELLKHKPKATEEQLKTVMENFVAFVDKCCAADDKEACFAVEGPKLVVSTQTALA
# ASSAY_METHOD_TEXT: scFv ELISA

BINDER | OD450
PcOxP_DB02_E06 (scFv, V domains shown, scFv in periplasmic extract) VH: EVQLLESGGGLVQPGGSLRLSCAASGFTFSDEYMEWVRQAPGKGLEWVAASRGKGNSYTTEYADSVKGRFTISRDNSKNTLYLQMNSLRAEDTAVYYCARDYYGSSYWYFDVWGQGTLVTVSS VL: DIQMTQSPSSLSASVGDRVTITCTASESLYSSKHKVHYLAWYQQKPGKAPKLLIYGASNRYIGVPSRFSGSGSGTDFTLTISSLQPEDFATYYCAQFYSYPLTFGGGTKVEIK | 0.1 OD450
PcOxP_DB01_D06 (scFv, V domains shown, scFv in periplasmic extract) VH: EVQLLESGGGLVQPGGSLRLSCAASGFTFSDFYMEWVRQAPGKGLEWVAASRNKANDYTTEYADSVKGRFTISRDNSKNTLYLQMNSLRAEDTAVYYCARDYYGSSYWYFDSWGQGTLVTVSS VL: DIVMTQSPDSLAVSLGERATINCTASESLYSSKHKVHYLAWYQQKPGQPPKLLIYGASNRYIGVPDRFSGSGSGTDFTLTISSLQAEDVAVYYCAQFYIYPLTFGGGTKVEIK | 0.06 OD450
PcOxP_DB02_A10 (scFv, V domains shown, scFv in periplasmic extract) VH: EVQLLESGGGLVQPGGSLRLSCAASGFAFSDFYMEWVRQAPGKGLEWVAASRNKANDYTTEYADSVKGRFTISRDNSKNTLYLQMNSLRAEDTAVYYCARDYYGSSYWYFDVWGQGTLVTVSS VL: DIQMTQSPSSLSASVGDRVTITCTASESLYSSKHKVHYLAWYQQKPGKAPKLLIYGASNRQSGVPSRFSGSGSGTDFTLTISSLQPEDFATYYCAQFYAYPLTFGGGTKVEIK | 0.11 OD450
